Provide the recorded pKd for the entries that follow.
Biological target: T1, FAT domain of human FAK (892–1052) (human, UniProt Q05397 892-1052)
T1 chain: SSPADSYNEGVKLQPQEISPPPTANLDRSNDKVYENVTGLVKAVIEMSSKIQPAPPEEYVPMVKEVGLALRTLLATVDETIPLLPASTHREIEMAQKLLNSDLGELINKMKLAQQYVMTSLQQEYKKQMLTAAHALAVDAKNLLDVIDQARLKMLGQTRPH
Assay: MST
Where no end group is shown, it is not given here.
Give bare numbers, as −log10 of the molar value.

# example entries with known answers
BINDER: GDLDNLDAILGDLTSSD (also: N-terminal FITC-Ahx only in labelled form) [NCOA3 (nuclear receptor coactivator 3) LD motif peptide]
REPORTED_ENDPOINT: pKd
NUMERIC_RESULT: 3.58
//
BINDER: SASSATRELDELMASLSD (also: N-terminal FITC-Ahx only in labelled form) [Paxillin LD4 peptide]
REPORTED_ENDPOINT: pKd
NUMERIC_RESULT: 4.26
//
BINDER: EDVLDELLQYLGVT (also: N-terminal FITC-Ahx only in labelled form, predicted LD motif of human RALGAPA1; also called RGPA1; source: synthetic peptide, bought: GenScript) [RALGAPA1 LD motif peptide]
REPORTED_ENDPOINT: pKd
NUMERIC_RESULT: 4.37

Give a short answer stating reported pKd for SQEEIDKLLMDLESFSQ (also: N-terminal FITC-Ahx only in labelled form) [PPP2R3A LD motif peptide] .
4.05

Reference source for all entries: paper PMC7703752
